B1: SCARA5 (parent)
chain: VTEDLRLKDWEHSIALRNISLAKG

Variants of: B1
Test: protein stability index of a GFP-peptide fusion (GPS, HEK-293T) (PSI 1-6); higher = more stable;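 also: lentivirally expressed fusions sorted by FACS into six bins by GFP to DsRed ratio, PSI derived from sequencing read proportions per bin multiplied by bin number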
Details: c terminus: a fixed tail appended
Below: a set of entries, each annotated with reported protein stability index.
Please state the value as a number alone, without comment.

Mutation spec: E11S
protein stability index: 2.98

Which protein stability index is listed for `K23A` ?
3.04

Would you mind telling me what protein stability index value was observed for `L16P` ?
4.52

Which measured protein stability index value corresponds to `T2I` ?
2.5

Which protein stability index is reported for this variant? `K23D`
3.84

Fill in the blank: the reported protein stability index of `T2C` is ____.
3.12

Param item = `A15K` ; retrieve measured protein stability index.
2.98
